- System: GM03665 cells (fibroblasts from a subject with Friedreich's ataxia)
- Assay Notes: RSL3 Toxicity Assay (RSL3 Assay)
- Format: cell-based, human
- Condition Set: Homo sapiens, Fibroblast; 2 μM RSL3, 24 hours, MTT; read-out: RSL3 Assay EC50, nM (Table 7)
Experimental Readout: EC50 (nM)
# output: bare number, implied unit nM

Exercise: Give recorded EC50. CC1=C(C)C(=O)C(CC[C@@](C)(O)COCCC[Si](C)(C)C)=C(C)C1=O
Key: 41.2
